Measured values drawn from paper PMC12864922 for this set.

Consider the following binders and their measured binding signal readings.
Target: TDP-43 (Homo sapiens, UniProt Q13148 1-414)
Sequence (Q13148 whole entry): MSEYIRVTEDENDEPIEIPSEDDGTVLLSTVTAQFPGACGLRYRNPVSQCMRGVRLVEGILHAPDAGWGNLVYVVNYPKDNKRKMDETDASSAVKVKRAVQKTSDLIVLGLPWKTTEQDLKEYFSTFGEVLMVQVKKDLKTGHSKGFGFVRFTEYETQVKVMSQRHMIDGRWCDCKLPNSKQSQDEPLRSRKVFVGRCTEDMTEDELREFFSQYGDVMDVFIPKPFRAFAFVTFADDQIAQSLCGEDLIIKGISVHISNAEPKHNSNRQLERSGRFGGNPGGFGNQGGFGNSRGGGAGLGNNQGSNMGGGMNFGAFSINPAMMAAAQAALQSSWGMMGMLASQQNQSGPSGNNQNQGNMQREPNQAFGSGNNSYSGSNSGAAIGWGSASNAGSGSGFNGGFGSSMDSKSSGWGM
Assay: RNA Bind-n-Seq with designed 260-mer pool; 25 mM Tris-HCl, 150 mM KCl, 3 mM MgCl2, BSA (printed 500 mg/mL), 20 units/mL SUPERase IN; pH not stated; 500 nM RNA pool, 1 h, 4 C; TDP-43 5, 50, 500 nM; high values mean tight binding
Details: protein: recombinant; tags: SBP (GST cleaved off with PreScission; pGEX-GST-SBP)
Whole data set: some 9,900 sequences, median “r (bound/input frequency ratio)” near 0.7, cut for the highest 2% near 6.5. The list comes from a sample in which the highest values are over-represented; it also holds close analogues and randomly drawn sequences.

binder	binding signal
ENSMUSG00000058297.297|Spock2|59:64 (ssRNA) RNA: GGGAGUUCUACAGUCCGACGAUCGCUUCGAUAUCCGCAUGCUAUGAGAGAGAGAAUACCCGAGGGCCACCCUGAUGCCCAGGAAGAGUGAGGGCAGCCCCCACACACGUGGAAGAGGCUGGGCAGCUAGCUACUGGGGACCUUGUGCUGAGGCUUCCAGGACAAAGCCCCAGUCUGGCUCUCCCCCAGCCUCUCAGGGGCACUGGCUGGUCACAUCCACUGAGUAUUGAUCGGUUGGACUUUAGGGAAGAGCCUCCUCCUUCCCAUUCCUUUCUGCCACCCUGGAAUGGCCACCUUAAUCGUCCUCUUGCGGUCGCACUAGUGUGGAAUUCUCGGGUGUCAAGG	6.44 R (bound/input frequency ratio)
ENSMUSG00000058297.284|Spock2|1:18;137:142 (ssRNA) RNA: GGGAGUUCUACAGUCCGACGAUCGCUUCGAUAUCCGCAUGCUAACACACACACACACACACAGAGAGAGAGAGAGAGAGAGAGAGAGAGAGAGAGAGAAAGAGAGAGAGAAUGAGAGAGAAUGAGAGAGAGAAUACCCGAGGGCCACCCUGAUGCCCAGGAAGAGUGAGGGCAGCCCCCACACACGUGGAAGAGGCUGGGCAGCUAGCUACUGGGGACCUUGUGCUGAGGCUUCCAGGACAAAGCCCCAGUCUGGCUCUCCCCCAGCCUCUCAGGGGCACUGGCUGGUCACAUCCACUGAGUACUCUUGCGGUCGCACUAGUGUGGAAUUCUCGGGUGUCAAGG	8.98 R (bound/input frequency ratio)
